All figures here come from patent US20040116336A1.

Attribute: pIC50
# tested target: APJ (orphan G protein-coupled receptor protein)
# Sequence (P35414 whole entry): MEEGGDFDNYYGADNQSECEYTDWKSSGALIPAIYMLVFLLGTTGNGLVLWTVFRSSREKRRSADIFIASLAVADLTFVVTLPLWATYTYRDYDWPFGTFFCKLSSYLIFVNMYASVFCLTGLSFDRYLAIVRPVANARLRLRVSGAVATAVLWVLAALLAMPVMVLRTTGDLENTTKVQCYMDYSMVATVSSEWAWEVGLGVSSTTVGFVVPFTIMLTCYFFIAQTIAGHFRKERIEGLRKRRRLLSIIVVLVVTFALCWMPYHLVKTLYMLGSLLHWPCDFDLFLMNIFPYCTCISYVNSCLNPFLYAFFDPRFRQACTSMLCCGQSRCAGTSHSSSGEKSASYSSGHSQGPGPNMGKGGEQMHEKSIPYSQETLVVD
# assay method text: radioligand competition, compound of Ref. Ex. 2 as labelled ligand, CHO-A10 membrane fraction
pIC50: −log10 of the molar value. Starred links: 1 amine or outer side, 2 acyl side, 3 side chain; linkers in the order of their positions; H or OH if unused. Non-standard residues stand in square brackets, D forms with d. No end group written: not given here. *: point of attachment. Phe(4-Cl) = N[C@@H](Cc1ccc(Cl)cc1)C(=O)O; Adipoyl = O=C(CCCCC(=O)[*:2])[*:1]; Cha = N[C@@H](CC1CCCCC1)C(=O)O; pGlu = O=C1CC[C@@H](C(=O)O)N1; Dap = NC[C@H](N)C(=O)O; Hexanoyl = CCCCCC(=O)*

binder	pIC50
RPRLFHKGP[Cha]PX (not fully specified (residue 12); printed as Arg-Pro-Arg-Leu-Phe-His-Lys-Gly-Pro-Cha-Pro-Phe(Cl)) [Arg-Pro-Arg-Leu-Phe-His-Lys-Gly-Pro-Cha-Pro-Phe(Cl)]	9.54
RPRLSARGP[Cha]PF [Arg-Pro-Arg-Leu-Ser-Ala-Arg-Gly-Pro-Cha-Pro-Phe]	10.08
XRPRLSRKGPMPF (N-terminal pGlu; peptide derivative; Xaa means pGlu) [pGlu-Arg-Pro-Arg-Leu-Ser-Arg-Lys-Gly-Pro-Met-Pro-Phe]	9.64
XRPRLSHLGPMPF (N-terminal pGlu; peptide derivative; Xaa means pGlu) [pGlu-Arg-Pro-Arg-Leu-Ser-His-Leu-Gly-Pro-Met-Pro-Phe]	8.44
[pGlu]RPRLSRRGPMPF [pGlu-Arg-Pro-Arg-Leu-Ser-Arg-Arg-Gly-Pro-Met-Pro-Phe]	9.14
RPRASHKGP[Cha]PX (not fully specified (residue 12); printed as Arg-Pro-Arg-Ala-Ser-His-Lys-Gly-Pro-Cha-Pro-Phe(Cl)) [Arg-Pro-Arg-Ala-Ser-His-Lys-Gly-Pro-Cha-Pro-Phe(Cl)]	9.77
RPRLS[Dap](Hexanoyl)RGP[Cha]P[Phe(4-Cl)] [Arg-Pro-Arg-Leu-Ser-Dap(C6)-Arg-Gly-Pro-Cha-Pro-Phe(Cl)]	9.35
RPRLFHKGP[Cha]PF [Arg-Pro-Arg-Leu-Phe-His-Lys-Gly-Pro-Cha-Pro-Phe]	9.89
XRPRLSLKGPMPF (N-terminal pGlu; peptide derivative; Xaa means pGlu) [pGlu-Arg-Pro-Arg-Leu-Ser-Leu-Lys-Gly-Pro-Met-Pro-Phe]	9.23
RRQRPRLSARGPX (C-terminal Cha; peptide derivative; Xaa means Cha.) [Arg-Arg-Gln-Arg-Pro-Arg-Leu-Ser-Ala-Arg-Gly-Pro-Cha]	10.34
RPRLSHKGPMX (Nal(2) non-natural residue; peptide derivative; Xaa means Nal(2)) [Arg-Pro-Arg-Leu-Ser-His-Lys-Gly-Pro-Met-Nal(2)]	9.21
RPRLS[Dap](Adipoyl)RGP[Cha]P[Phe(4-Cl)] [Arg-Pro-Arg-Leu-Ser-Dap(Adi)-Arg-Gly-Pro-Cha-Pro-Phe(Cl)]	9.89
XRPRLSHKGPMX (N-terminal pGlu; C-terminal Nal(2); peptide derivative; Xaa on the 1st position means pGlu; Xaa on the 12th position means Nal(2)) [pGlu-Arg-Pro-Arg-Leu-Ser-His-Lys-Gly-Pro-Met-Nal(2)]	8.85
RRQRPRLSARG-NMe2 [Arg-Arg-Gln-Arg-Pro-Arg-Leu-Ser-Ala-Arg-Gly-NMe2]	9.80
RPRLFHKGP[Cha]X (not fully specified (residue 11); printed as Arg-Pro-Arg-Leu-Phe-His-Lys-Gly-Pro-Cha-Phe(Cl)) [Arg-Pro-Arg-Leu-Phe-His-Lys-Gly-Pro-Cha-Phe(Cl)]	9.27
RPRLSHAGP[Cha]PX (not fully specified (residue 12); printed as Arg-Pro-Arg-Leu-Ser-His-Ala-Gly-Pro-Cha-Pro-Phe(Cl)) [Arg-Pro-Arg-Leu-Ser-His-Ala-Gly-Pro-Cha-Pro-Phe(Cl)]	9.66
RPRLSARGP[Cha]X (not fully specified (residue 11); printed as Arg-Pro-Arg-Leu-Ser-Ala-Arg-Gly-Pro-Cha-Phe(Cl)) [Arg-Pro-Arg-Leu-Ser-Ala-Arg-Gly-Pro-Cha-Phe(Cl)]	10.00
RPALSHKGP[Cha]PX (not fully specified (residue 12); printed as Arg-Pro-Ala-Leu-Ser-His-Lys-Gly-Pro-Cha-Pro-Phe(Cl)) [Arg-Pro-Ala-Leu-Ser-His-Lys-Gly-Pro-Cha-Pro-Phe(Cl)]	9.82
XRPRLSFKGPMPF (N-terminal pGlu; peptide derivative; Xaa means pGlu) [pGlu-Arg-Pro-Arg-Leu-Ser-Phe-Lys-Gly-Pro-Met-Pro-Phe]	9.02
RPRLSARGP[Cha]PX (not fully specified (residue 12); printed as Arg-Pro-Arg-Leu-Ser-Ala-Arg-Gly-Pro-Cha-Pro-Phe(Cl)) [Arg-Pro-Arg-Leu-Ser-Ala-Arg-Gly-Pro-Cha-Pro-Phe(Cl)]	9.89
RPRLSHKGPMPX (C-terminal Nal(2); peptide derivative; Xaa means Nal(2)) [Arg-Pro-Arg-Leu-Ser-His-Lys-Gly-Pro-Met-Pro-Nal(2)]	9.46
XRPRLSHRGPMPF (N-terminal pGlu; peptide derivative; Xaa means pGlu) [pGlu-Arg-Pro-Arg-Leu-Ser-His-Arg-Gly-Pro-Met-Pro-Phe]	9.40
XRPRLFHKGPMPF (N-terminal pGlu; peptide derivative; Xaa means pGlu) [pGlu-Arg-Pro-Arg-Leu-Phe-His-Lys-Gly-Pro-Met-Pro-Phe]	9.00
RRXRPRLSHKGPMPF (N-terminal branched Arg-Arg-Lys(Arg-Arg); peptide derivative; Xaa means Lys(Arg-Arg)) [Arg-Arg-Lys(Arg-Arg)-Arg-Pro-Arg-Leu-Ser-His-Lys-Gly-Pro-Met-Pro-Phe]	9.08
XRPRLSHFGPMPF (N-terminal pGlu; peptide derivative; Xaa means pGlu) [pGlu-Arg-Pro-Arg-Leu-Ser-His-Phe-Gly-Pro-Met-Pro-Phe]	8.59
RRQRPRLSHKGPX (oxidized C-terminal residue; peptide; Xaa means Met(O)) [Arg-Arg-Gln-Arg-Pro-Arg-Leu-Ser-His-Lys-Gly-Pro-Met(O)]	9.21
